- tested_target: NUAK2 (Homo sapiens)
- Construct: purchased MRC PPU
- Sequence (Q9H093 whole entry): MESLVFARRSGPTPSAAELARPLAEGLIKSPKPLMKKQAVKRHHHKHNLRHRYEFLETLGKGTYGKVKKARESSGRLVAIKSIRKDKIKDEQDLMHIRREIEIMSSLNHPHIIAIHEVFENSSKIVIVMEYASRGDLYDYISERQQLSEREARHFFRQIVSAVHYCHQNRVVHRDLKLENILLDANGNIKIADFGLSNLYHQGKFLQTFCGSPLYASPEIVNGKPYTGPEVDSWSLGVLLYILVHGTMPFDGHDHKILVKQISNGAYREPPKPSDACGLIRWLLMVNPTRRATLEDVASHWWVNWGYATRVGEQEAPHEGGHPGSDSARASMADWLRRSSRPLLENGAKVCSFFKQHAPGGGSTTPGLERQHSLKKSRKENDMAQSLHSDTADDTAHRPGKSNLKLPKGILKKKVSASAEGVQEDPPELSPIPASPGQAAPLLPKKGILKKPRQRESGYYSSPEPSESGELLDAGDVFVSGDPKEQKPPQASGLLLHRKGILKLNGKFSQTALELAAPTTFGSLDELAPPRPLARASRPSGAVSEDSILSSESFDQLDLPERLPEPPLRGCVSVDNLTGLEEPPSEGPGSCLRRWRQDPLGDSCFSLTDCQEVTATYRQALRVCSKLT
- method_summary: ADP-Glo biochemical assay NUAK2
- condition_description: ADP-Glo assay; read-out: NUAK2 pIC50 (converted)
log10(IC50) listing for selected compounds.
Log scale reminder: IC50 in µM, then log10 taken.

Look over these answered cases.
> print(dat)
                                   compound         tested.target  attribute.measured  reported
1  Cc1cc(=O)n(C2CCCC2)c2nc(Nc3ccc(N4CCN(C)CC4)cc3)ncc12  NUAK2 (Homo sapiens)         log10(IC50)     -1.55
2  CN1C2CC1CN(c1ccc(Nc3ncc4ccn(CC5CCOCC5)c4n3)cc1)C2  NUAK2 (Homo sapiens)         log10(IC50)     -1.57
3  Cc1cc(=O)n(C2CCCC2)c2nc(Nc3ccc(N4CC5CC(C4)N5C)cc3)ncc12  NUAK2 (Homo sapiens)         log10(IC50)     -1.83
4  CC(C)N1CCN(c2ccc(Nc3ncc4c(n3)N(C3CCCC3)C(=O)C4)cc2)CC1  NUAK2 (Homo sapiens)         log10(IC50)     -0.85
5  Cc1cc(=O)n(C(C)C)c2nc(Nc3ccc(N4CC5CC(C4)N5C)cc3)ncc12  NUAK2 (Homo sapiens)         log10(IC50)     -1.16

Quick check: log10(IC50) on NUAK2 (Homo sapiens), item CN1CCN(c2ccc(Nc3ncc4cc(C#N)c(=O)n(C5CCCC5)c4n3)cc2)CC1 [Compound 3, Narazaciclib, reference compound] ?
-2.25

Quick check: log10(IC50) on NUAK2 (Homo sapiens), item CC(C)N1CCN(c2ccc(Nc3ncc4ccn(CC5CCCO5)c4n3)cc2)CC1 (stereo not shown) ?
-1.91

Quick check: log10(IC50) on NUAK2 (Homo sapiens), item CC(C)N1CCN(c2ccc(Nc3ncc4ccn(C5CCCC5)c4n3)cc2)CC1 ?
-1.36

Quick check: log10(IC50) on NUAK2 (Homo sapiens), item CN1C2CC1CN(c1ccc(Nc3ncc4ccn(CC5CCCO5)c4n3)cc1)C2 (stereo not shown) ?
-1.27

Quick check: log10(IC50) on NUAK2 (Homo sapiens), item CC(C)N1CCN(c2ccc(Nc3ncc4ccn(CC5CCOC(C)(C)C5)c4n3)cc2)CC1 (stereo not shown) ?
-1.41
